Assay: Lipophilicity, log D of compound at pH 7.4
Format: physicochemical
Details: buffer
Recorded metric: logD

CCCCN1CCC[C@@H]1Cn1nc(Cc2ccc(Cl)cc2)c2cccnc2c1=O; 2.8

P: CN1CCC[C@@H]1Cn1nc(Cc2ccc(Cl)cc2)c2cnccc2c1=O
Q: CCCCN1CCC[C@@H]1Cn1nc(Cc2ccc(Cl)cc2)c2ccccc2c1=O
From the items above, decide which of P and Q has the lower logD reading. Answer with the label corresponding to your selection. P
(P: 1.9, Q: 3.1)

A: COCCN1CCC[C@@H]1Cn1nc(Cc2ccc(Cl)cc2)c2ccccc2c1=O
B: CN1CCC[C@@H]1Cn1nc(Cc2ccc(Cl)cc2)c2ccncc2c1=O
From the items above, decide which of A and B has the lower logD reading. Answer with the label corresponding to your selection. B

Origin of values: ChEMBL document CHEMBL2146436
